// data source = ChEMBL document CHEMBL3885881

species: Rattus norvegicus; test: DrugMatrix - Regimen: Daily Repeat; type: toxicity, organism-based, Sprague-Dawley; design: regimen Daily Repeat, gender Male, age 6-8 weeks; conditions: in vivo, iv, 0 mg/kg, 72 h, tissue Plasma, dose level Control, time 3 day, vehicle 100 % SALINE
Starred links: 1 amine or outer side, 2 acyl side, 3 side chain; linkers in the order of their positions; H or OH if unused. Positions of bridges follow the written chain, without caps; N, C: chain ends. Non-standard residues stand in square brackets, D forms with d. Residues, ends and D or L forms follow the SMILES beside them. Chains are numbered I, II in the order given. Actinocin(9to1) = Cc1c2oc3c(C)ccc(C(=O)[*:1])c3nc-2c(C(=O)[*:2])c(N)c1=O; NMeV = CN[C@H](C(=O)O)C(C)C; Sar = CNCC(=O)O
experimental.readout: CHOLESTEROL (mg/dL)

1. Cc1ccc(N(CC2=NCCN2)c2cccc(O)c2)cc1 [PHENTOLAMINE]: 80.33
2. Cc1c2oc3c(C)ccc(C(=O)N[C@@H]4C(=O)N[C@H](C(C)C)C(=O)N5CCC[C@H]5C(=O)N(C)CC(=O)N(C)[C@@H](C(C)C)C(=O)O[C@@H]4C)c3nc-2c(C(=O)N[C@@H]2C(=O)N[C@H](C(C)C)C(=O)N3CCC[C@H]3C(=O)N(C)CC(=O)N(C)[C@@H](C(C)C)C(=O)O[C@@H]2C)c(N)c1=O [DACTINOMYCIN] (I: T[dV]P[Sar][NMeV] / II: T[dV]P[Sar][NMeV]; ester I:1-I:C, II:1-II:C; linker I:N-II:N via Actinocin(9to1)): 63.5
3. CC[C@]1(O)C[C@H]2CN(CCc3c([nH]c4ccccc34)[C@@](C(=O)OC)(c3cc4c(cc3OC)N(C=O)[C@H]3[C@@](O)(C(=O)OC)[C@H](OC(C)=O)[C@]5(CC)C=CCN6CC[C@]43[C@@H]65)C2)C1 [VINCRISTINE]: 80.33

---

species on record: Rattus norvegicus; experiment: DrugMatrix - Regimen: Daily Repeat; type: toxicity, organism-based, Sprague-Dawley; set-up: regimen Daily Repeat, gender Male, age 6-8 weeks; conditions: in vivo, po, 0 mg/kg, 120 h, tissue Blood, route oral GAVAGE, dose level Control, time 5 day, vehicle .5 % CMC
Lab note: compare LEUKOCYTE COUNT with 10 x10E3/uL, writing Met if less and Not met if equal or more.

1) Nc1ccn([C@H]2CC[C@@H](CO)O2)c(=O)n1: Met
2) C1CCC(C(CC2CCCCN2)C2CCCCC2)CC1 (configuration not stated): Met
3) COc1nc(C)nc(Cl)c1N=C1NCCN1: Not met
4) CN1CCN(CCCN2c3ccccc3Sc3ccc(Cl)cc32)CC1: Not met
5) N=C(N)NCCN1CCCCCCC1: Not met
6) Cc1ccc(/N=C/N(C)/C=N/c2ccc(C)cc2C)c(C)c1: Not met
7) CCn1cc(C(=O)O)c(=O)c2cc(F)c(N3CCNCC3)cc21: Not met
8) CC(C)(C)NC(=O)[C@@H]1C[C@@H]2CCCC[C@@H]2CN1C[C@@H](O)[C@H](Cc1ccccc1)NC(=O)[C@H](CC(N)=O)NC(=O)c1ccc2ccccc2n1: Not met
9) Cc1nc2n(c(=O)c1CCN1CCC(c3noc4cc(F)ccc34)CC1)CCCC2: Met
10) CC1CC(OC(=O)C(O)c2ccccc2)CC(C)(C)C1 (configuration not stated) [CYCLANDELATE]: Not met
11) CCCCc1oc2ccccc2c1C(=O)c1cc(I)c(OCCN(CC)CC)c(I)c1: Met
12) O=C(CCCN1CC=C(n2c(=O)[nH]c3ccccc32)CC1)c1ccc(F)cc1: Met

---

species on record: Rattus norvegicus; experiment: DrugMatrix - Regimen: Daily Repeat; format: toxicity, organism-based, Sprague-Dawley; parameters: regimen Daily Repeat, gender Male, age 6-8 weeks; conditions: in vivo, po, 0 mg/kg, 72 h, tissue Plasma, route oral GAVAGE, dose level Control, time 3 day, […]
experimental.readout: ALBUMIN (G/DL)

1) O=C(O)CCCc1ccc(N(CCCl)CCCl)cc1: 3.97
2) Cc1noc(NS(=O)(=O)c2ccc(N)cc2)c1C: 4.03
3) CCC(C)n1ncn(-c2ccc(N3CCN(c4ccc(OCC5COC(Cn6cncn6)(c6ccc(Cl)cc6Cl)O5)cc4)CC3)cc2)c1=O (stereo not given): 3.97
4) Cc1ccc(-c2cc(C(F)(F)F)nn2-c2ccc(S(N)(=O)=O)cc2)cc1: 3.97
5) O=NN(CCCl)C(=O)NC1CCCCC1: 3.98

---

species: Rattus norvegicus; test: DrugMatrix - Regimen: Daily Repeat; format: toxicity, organism-based, Sprague-Dawley; set-up: regimen Daily Repeat, gender Male, age 6-8 weeks; conditions: in vivo, po, 0 mg/kg, 120 h, tissue Plasma, route oral GAVAGE, dose level Control, time 5 day, […]
Recorded PHOSPHORUS, one value per entry.
experimental.readout: PHOSPHORUS (mg/dL)

1) CC(C)(Oc1ccc(Cl)cc1)C(=O)O [CLOFIBRIC ACID]: 11.08
2) CCOC(=O)C1=C(COCCN)NC(C)=C(C(=O)OC)C1c1ccccc1Cl (centres undefined) [AMLODIPINE]: 11.28
3) Cc1oncc1C(=O)Nc1ccc(C(F)(F)F)cc1 [LEFLUNOMIDE]: 10.8
4) Cc1ccc(-c2cc(C(F)(F)F)nn2-c2ccc(S(N)(=O)=O)cc2)cc1 [CELECOXIB]: 11.5

---

Recorded POTASSIUM, one value per entry.
species: Rattus norvegicus; assay: DrugMatrix - Regimen: Daily Repeat; assay type: toxicity, organism-based, Sprague-Dawley; design: regimen Daily Repeat, gender Male, age 6-8 weeks; conditions: in vivo, po, 0 mg/kg, 72 h, tissue Plasma, route oral GAVAGE, dose level Control, time 3 day, […]
experimental.readout: POTASSIUM (MEQ/L)

1) O=c1oc2ccccc2c(O)c1Cc1c(O)c2ccccc2oc1=O [DICUMAROL]: 6.38
2) CC(C)(Oc1ccc(Cl)cc1)C(=O)O [CLOFIBRIC ACID]: 6.1
3) C[C@H]1O[C@@H](O[C@H]2[C@@H](O)C[C@H](O[C@H]3[C@@H](O)C[C@H](O[C@H]4CC[C@@]5(C)[C@H](CC[C@@H]6[C@@H]5C[C@@H](O)[C@]5(C)[C@@H](C7=CC(=O)OC7)CC[C@]65O)C4)O[C@@H]3C)O[C@@H]2C)C[C@H](O)[C@@H]1O [DIGOXIN]: 6.26
4) C[C@@H]1CN(c2c(F)c(N)c3c(=O)c(C(=O)O)cn(C4CC4)c3c2F)C[C@H](C)N1 [SPARFLOXACIN]: 6.13
5) Cc1oncc1C(=O)Nc1ccc(C(F)(F)F)cc1 [LEFLUNOMIDE]: 5.37
6) Cc1noc(NS(=O)(=O)c2ccc(N)cc2)c1C [SULFISOXAZOLE]: 5.91
7) O=NN(CCCl)C(=O)NC1CCCCC1 [LOMUSTINE]: 6.13
8) CCC(C)n1ncn(-c2ccc(N3CCN(c4ccc(OCC5COC(Cn6cncn6)(c6ccc(Cl)cc6Cl)O5)cc4)CC3)cc2)c1=O (stereo not drawn) [ITRACONAZOLE]: 5.95
9) Cc1ccc(-c2cc(C(F)(F)F)nn2-c2ccc(S(N)(=O)=O)cc2)cc1 [CELECOXIB]: 5.95
10) CN(C)c1nc(N(C)C)nc(N(C)C)n1 [ALTRETAMINE]: 6.13
11) OC(Cn1cncn1)(Cn1cncn1)c1ccc(F)cc1F [FLUCONAZOLE]: 5.95
12) CC(C)C(=O)Nc1ccc([N+](=O)[O-])c(C(F)(F)F)c1 [FLUTAMIDE]: 5.22
13) CCOC(=O)C1=C(COCCN)NC(C)=C(C(=O)OC)C1c1ccccc1Cl (stereo not drawn) [AMLODIPINE]: 6.13

---

organism: Rattus norvegicus; assay: DrugMatrix - Regimen: Daily Repeat; type: toxicity, organism-based, Sprague-Dawley; set-up: regimen Daily Repeat, gender Male, age 6-8 weeks; details: in vivo, po, 0 mg/kg, 72 h, tissue Blood, route oral GAVAGE, dose level Control, time 3 day, vehicle .5 % CMC
Recorded ERYTHROCYTE COUNT, one value per entry.
experimental.readout: ERYTHROCYTE COUNT (x10E6/uL)

1) Cc1ccc2cc3c(ccc4ccccc43)c3c2c1CC3: 6.68
2) Cc1nc2n(c(=O)c1CCN1CCC(c3noc4cc(F)ccc34)CC1)CCCC2: 6.19
3) ClC(Br)Br: 5.26

---

Recorded TOTAL BILIRUBIN, one value per entry.
species on record: Rattus norvegicus; test: DrugMatrix - Regimen: Daily Repeat; assay type: toxicity, organism-based, Sprague-Dawley; set-up: regimen Daily Repeat, gender Male, age 6-8 weeks; conditions: in vivo, po, 0 mg/kg, 72 h, tissue Plasma, route oral GAVAGE, dose level Control, time 3 day, […]
experimental.readout: TOTAL BILIRUBIN (mg/dL)

1) OC(Cn1cncn1)(Cn1cncn1)c1ccc(F)cc1F [FLUCONAZOLE]: 0.2
2) CC(C)C(=O)Nc1ccc([N+](=O)[O-])c(C(F)(F)F)c1 [FLUTAMIDE]: 0.13
3) C[C@H]1O[C@@H](O[C@H]2[C@@H](O)C[C@H](O[C@H]3[C@@H](O)C[C@H](O[C@H]4CC[C@@]5(C)[C@H](CC[C@@H]6[C@@H]5C[C@@H](O)[C@]5(C)[C@@H](C7=CC(=O)OC7)CC[C@]65O)C4)O[C@@H]3C)O[C@@H]2C)C[C@H](O)[C@@H]1O [DIGOXIN]: 0.18
4) C[C@@H]1CN(c2c(F)c(N)c3c(=O)c(C(=O)O)cn(C4CC4)c3c2F)C[C@H](C)N1 [SPARFLOXACIN]: 0.2
5) CCC(C)n1ncn(-c2ccc(N3CCN(c4ccc(OCC5COC(Cn6cncn6)(c6ccc(Cl)cc6Cl)O5)cc4)CC3)cc2)c1=O (stereo unspecified) [ITRACONAZOLE]: 0.2
6) CCOC(=O)C1=C(COCCN)NC(C)=C(C(=O)OC)C1c1ccccc1Cl (stereo unspecified) [AMLODIPINE]: 0.2
